- Tested On: OATP1B3 (Homo sapiens, UniProt Q9NPD5)
- Sequence (Q9NPD5 1-702): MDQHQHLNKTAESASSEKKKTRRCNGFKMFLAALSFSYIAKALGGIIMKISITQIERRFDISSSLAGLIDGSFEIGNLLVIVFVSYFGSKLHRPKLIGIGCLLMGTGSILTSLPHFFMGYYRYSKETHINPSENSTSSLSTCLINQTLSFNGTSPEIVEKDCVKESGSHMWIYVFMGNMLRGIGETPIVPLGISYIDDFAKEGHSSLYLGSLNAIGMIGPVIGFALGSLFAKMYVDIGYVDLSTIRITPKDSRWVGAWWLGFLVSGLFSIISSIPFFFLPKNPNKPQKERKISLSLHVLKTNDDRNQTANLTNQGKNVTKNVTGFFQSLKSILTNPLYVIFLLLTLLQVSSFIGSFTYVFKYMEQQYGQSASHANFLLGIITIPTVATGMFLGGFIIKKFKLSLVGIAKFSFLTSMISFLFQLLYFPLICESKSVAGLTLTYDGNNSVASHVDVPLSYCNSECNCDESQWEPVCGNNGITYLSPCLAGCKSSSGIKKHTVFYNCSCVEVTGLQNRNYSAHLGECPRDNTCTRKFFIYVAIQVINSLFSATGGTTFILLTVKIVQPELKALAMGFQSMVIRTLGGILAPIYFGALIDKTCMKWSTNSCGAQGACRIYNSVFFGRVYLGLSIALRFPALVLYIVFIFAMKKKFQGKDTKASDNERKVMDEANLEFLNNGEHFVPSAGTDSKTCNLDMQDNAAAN
- Method Description: OATP1B3 inhibition assay
- Type: cell-based
Reported Property: IC50 (µM)
Give bare numbers, in µM.

Reported IC50 of `COc1ccc(-c2cc(=O)c3c(OC)c(OC)c(OC)c(OC)c3o2)cc1` : 5.6

Reported IC50 of `COc1ccc(-c2cc(=O)c3c(OC)c(OC)c(OC)c(OC)c3o2)cc1OC` : 6.6

Alright, here's another compound for you.
Reported IC50 of `COc1ccc(-c2cc(=O)c3c(OC)c(OC)c(OC)cc3o2)cc1OC` : 21.1

Reference source for all entries: paper PMC7677148
